- System: LOX IMVI melanoma
- assay-explanation: NCI tumour cell line growth inhibition, 48 h
metric-name: TGI

Worked examples follow.
1) CCc1cc2c(c3[nH]ccc13)[C@@H](C)C[C@H]2C; 25.3 µM
2) CC1CN=C(N(C(=O)Nc2ccccc2)C2CCCCC2)S1 (stereo not given); 27.1 µM
3) COc1ccc(Nc2ccnc3cc(Cl)ccc23)cc1CN(CCCl)CCCl; 4.39 µM
4) O=C(OCC(OC(=O)c1ccccc1)C1CC(C(O)C2CCCCC2)C(=O)O1)c1ccccc1 (stereo not given); > 100 µM
5) O=C(O)c1ccccc1/C=C1/Nc2ccccc2C1=O; > 100 µM

Provide TGI for all items below, preserving their order.
1. COc1cc2cc(Oc3ccc(NC(=O)Nc4cc(C(F)(F)F)cc(C(F)(F)F)c4)cc3)c(C)nc2cc1OCCN1CCCCC1
2. CCOC(=O)c1sc2[n+](c1C)C(=O)/C(=C/c1ccccc1Cl)S2
3. CC(=O)[O-].CC(=O)[O-].CC(=O)[O-].CC(=O)[O-].CO.CO.CO.[Rh+2].[Rh+2].c1ccc(-c2ccccn2)nc1
4. COC1OC(=O)C(OC)C(OC)C1OC (stereo not given)

1: 3.17 µM; 2: 19.1 µM; 3: > 100 µM; 4: > 100 µM

Provide TGI for all items below, preserving their order.
1. COc1cc(OC)cc(-c2nc3ccccc3c(=O)[nH]2)c1
2. CN(C)CCSc1nccc(-c2ccc(-c3ccnc(SCCN(C)C)n3)s2)n1

["> 100 µM", "11.9 µM"]

====

- System: HS 578T breast
- assay-explanation: NCI tumour cell line growth inhibition, 48 h
metric-name: TGI

1) CC[C@@]1(O)C(=O)N(CCN(C)C)Cc2c1cc1n(c2=O)Cc2cc3ccccc3nc2-1; > 100 µM
2) CCN1CCN(c2nc(NNC(=O)c3cccc(OC)c3)nc(N3CCN(C(c4ccccc4)c4ccccc4)CC3)n2)CC1; 4.43 µM

Provide TGI for all items below, preserving their order.
1. O=C(O)CCC(NC(=O)/C(=C/c1ccccc1)NC(=O)c1ccccc1)C(=O)O (centres undefined)
2. COC(=O)C12CC(NC(=O)c3csc([C@@H](C[C@H](C(C)C)N(C)C(=O)[C@@H](NC(=O)[C@H]4CCCCN4C)C(C)C)OC(C)=O)n3)(C1)C2

1: > 100 µM; 2: > 33.3 µM

Provide TGI for all items below, preserving their order.
1. C=C1C(=O)O[C@H]2[C@H]1CC/C(COC(=O)c1ccc(Br)cc1)=C\CC[C@@]1(C)O[C@@H]21
2. CCOC(=O)Nc1ccc2nc(Sc3ccc(Cl)cc3)sc2c1
3. NC(=S)c1cn(C2OC(CO)C(O)C2O)c2ncnc(N)c12 (centres undefined)

["7.64 µM", "97.9 µM", "2.54 µM"]

Provide TGI for all items below, preserving their order.
1. Clc1ccc(C2=NNC(c3cccc(Cl)c3)C2)cc1 (centres undefined)
2. c1ccc(C2C3=C(CCCC3)Nc3nnnn32)cc1 (centres undefined)
3. CN1CCN(C2CC(=O)c3c(Cl)sc(Cl)c32)CC1 (centres undefined)
4. Cc1cc(=O)oc2c(CN(CCCl)CCCl)c(O)ccc12

["> 100 µM", "> 100 µM", "> 23.7 µM", "> 100 µM"]

====

- System: MDA-MB-231 breast
- assay-explanation: NCI tumour cell line growth inhibition, 48 h
Task for the reader: assign each of the following compounds its reported GI50.

Worked examples follow.
1) O=C(CN1CCN(c2cc3c(cc2F)c(=O)c(C(=O)O)cn3C2CC2)CC1)Nc1ccc(C(=O)/C=C/c2ccccc2)cc1; 1840 nM
2) O=C(c1nc2ccccc2[nH]1)C1C(c2cccc([N+](=O)[O-])c2)C2CC3CCCCC3N2[C@@]12C(=O)Nc1cc(Cl)ccc12 (some centres not stated); 1490 nM
3) COc1ccc2c(c1)/C(=N/OC(C)=O)c1c-2c(Nc2ccc(/C(C)=N/OC(C)=O)cc2)nc2ccccc12; > 100000 nM
4) COc1ccc(C(=O)C(CN(C)C)c2ccccc2)cc1 (configuration not stated); 5410 nM
5) c1ccc(-c2nn(-c3ccccc3)[n+](-c3ccccc3-c3ccccc3)n2)cc1; 235 nM
6) CN1CCN(Cc2ccc(NC(=O)c3cncc(C#Cc4cncc5[nH]ncc45)c3)cc2C(F)(F)F)CC1; 230 nM

# evaluate next
Which GI50 is reported for this compound? `CC[C@@]1(O)C(=O)N(CCN(C)C)Cc2c1cc1n(c2=O)Cc2cc3ccccc3nc2-1`
> 100000 nM

====

- Tested on: CAKI-1 renal
- assay-explanation: NCI tumour cell line growth inhibition, 48 h
metric-name: GI50

Worked examples follow.
1. CCn1c(-c2nonc2N)nc2c(C#CC(C)(C)O)ncc(OCC3CCNCC3)c21; 17.2 µM
2. C[C@@H]1CC[C@H]2C(CN(C)CC3=C(C(F)(F)F)O[C@@H]4O[C@@]5(C)CC[C@H]6[C@H](C)CC[C@@H]3[C@@]46OO5)=C(C(F)(F)F)O[C@@H]3O[C@@]4(C)CC[C@@H]1[C@]32OO4; 3.19 µM
3. N#CCCCCCn1c2ccccc2c2c3c(c4c5ccccc5[nH]c4c21)C(=O)N(O)C3=O; 1.85 µM
4. CN(C)CC1CCCCCCCCCCC1=O (stereo unspecified); > 100 µM
5. c1ccc2c(Nc3ccc4c(c3)OCO4)c3ccoc3nc2c1; 12.3 µM

# evaluate next
Which GI50 is reported for this molecule? `Nc1cc2ccncc2c2ccccc12`
18.4 µM

====

- System: U251 CNS
Answer with one of the outcomes given here: active, inactive

Observe how each entry below is paired with its result.
1) CC[C@@]1(O)C(=O)N(CCN(C)C)Cc2c1cc1n(c2=O)Cc2cc3ccccc3nc2-1; inactive
2) S=C1NC2=C(CCOc3c2ccc2ccccc32)C(c2ccc(Cl)cc2)N1 (centres undefined); inactive
3) Cn1cc(C2=C(c3cn(C)c4cc(Cl)ccc34)C(=O)NC2=O)c2ccccc21; active
4) NC(=S)c1cn(C2OC(CO)C(O)C2O)c2ncnc(N)c12 (centres undefined); active
5) C[C@@H]1CC[C@H]2C(CN(C)CC3=C(C(F)(F)F)O[C@@H]4O[C@@]5(C)CC[C@H]6[C@H](C)CC[C@@H]3[C@@]46OO5)=C(C(F)(F)F)O[C@@H]3O[C@@]4(C)CC[C@@H]1[C@]32OO4; active

Which result was noted for this compound in the test: `N#CCCCCCn1c2ccccc2c2c3c(c4c5ccccc5[nH]c4c21)C(=O)N(O)C3=O`
inactive

What would you report for `CCN(CC)CCn1nc2c3c(cccc3c1=O)-c1ccccc1-2` ?
inactive

What would you report for `COc1cc2cc(C(=O)N3C[C@H](CCl)c4c3cc(O)c3ccccc43)[nH]c2c(OC)c1OC` ?
active

What would you report for `O=C1c2ccccc2-c2c1c1ccccc1c(=O)n2CCCNCCO` ?
active

====

- Test system: BT-549 breast
- assay-explanation: NCI tumour cell line growth inhibition, 48 h
metric-name: log10 TGI (log10 of the value in µM)
Friendly reminder: values = log10 of TGI, unit µM.

1) CN1CCN(Cc2ccc(NC(=O)c3cncc(C#Cc4cncc5[nH]ncc45)c3)cc2C(F)(F)F)CC1; 0.75
2) Clc1ccc2c(NCCNc3nc(Cl)nc4ccccc34)ccnc2c1; 0.57
3) COc1ccc(OC)c([N+](=O)[O-])c1-c1nc2sc(C)cn2c1/C=N/N=C(N)N; 1.62
4) COc1cc(C2CC(c3cc(Cl)c(C)cc3O)=NN2c2ccc(S(N)(=O)=O)cc2)cc(OC)c1OC (configuration not stated); 0.85
5) CC(=O)O[C@H]1CC[C@]2(C=O)[C@H]3CC[C@]4(C)[C@@H](C5=CC(=O)OC5)CC[C@]4(O)[C@@H]3CC[C@]2(O)C1; -0.24
6) CC1=NNC(N)=N/C1=C\C(Sc1ccc(Cl)cc1)c1ccc(Cl)cc1Cl (configuration not stated); 1.75
7) C=C1C(=O)O[C@H]2[C@H]1CC/C(COC(=O)c1ccc(Br)cc1)=C\CC[C@@]1(C)O[C@@H]21; 0.48
8) BrCC[N+]12CCCN1CCC2; 1.50
9) Cc1cncc2cccc(S(=O)(=O)N3CCCNC[C@@H]3C)c12; 1.56
10) Oc1[nH]c2ccccc2c1N=NC(=S)NCc1ccccn1; 1.24

Provide log10 TGI for all items below, preserving their order.
1. O=C1CCc2c(sc3ncnc(Nc4cccc(Br)c4)c23)C1
2. C/C(=C\COc1ccc2ccc(=O)oc2c1)CCC(=O)C(C)(C)O

1. 1.14
2. 1.87

Provide log10 TGI for all items below, preserving their order.
1. O=C(N(C1=CCCC1)N(c1ccccc1)c1ccccc1)C(F)(F)F
2. CO[C@H]1/C=C/C=C/C=C/C[C@H](OC(=O)[C@@H](C)NC(=O)C2CCCCC2)[C@H](C)[C@@H](O)/C(C)=C\CCC2=CC(=O)C=C(NC(=O)C1)C2=O
3. CCN(CC)Cc1cc(Nc2c3ccc(Cl)cc3nc3c(C)cccc23)ccc1O

1.98
0.14
0.55

Provide log10 TGI for all items below, preserving their order.
1. C[C@@H]1CC[C@H]2C(CN(C)CC3=C(C(F)(F)F)O[C@@H]4O[C@@]5(C)CC[C@H]6[C@H](C)CC[C@@H]3[C@@]46OO5)=C(C(F)(F)F)O[C@@H]3O[C@@]4(C)CC[C@@H]1[C@]32OO4
2. Cn1ccnc1C(=O)/C=C/c1ccc(CC(=O)Nc2cc(F)c(F)c(F)c2)cc1

1.74
0.65
